B1: unnamed (parent)
chain 1: DKEWILQKIYEIMRLLDELGHAEASMRVSDLIYEF
chain 2: not shown

Variants of: B1
Conditions: with partner chain of the complex shown; 12 nM peptide; read off a plot
RECORDED ENDPOINT: screen value (%)
Report the value in % with no unit label.

Example entries and their recorded answers appear below.
{"MUTATION NOTATION": "chain 1 R14A", "screen value (%)": 24}
{"MUTATION NOTATION": "chain 1 L6A", "screen value (%)": 69}
{"MUTATION NOTATION": "chain 1 F35A", "screen value (%)": 23}

Query string: Identify measured screen value corresponding to chain 1 L31A
Result string: 18
